Assay: Log D and log P by shake-flask method
Format: physicochemical
Conditions: n-octanol/aqueous buffer, pH 1.4, n-octanol/aqueous buffer pH 1.4, mean ± SD of three; read-out: log D 1.4
Parameter: logD

compound="Br.CC(=N)NC(c1ccccc1)c1ccccc1 [Compound 1, 1‐(benzhydrylamino)ethaniminium bromide]" parameter=logD value_reported=-0.85

// next entry
Asked: Input C/C(=N\O)NC(c1ccccc1)c1ccccc1 [Compound 2] , output reported logD.
Given back: -0.16

====

Assay: Log D and log P by shake-flask method
Type: physicochemical
Settings: n-octanol/aqueous buffer; shake-flask, as free amine, mean ± SD of three
Parameter: logP
Keep it simple and answer with nothing but the number.

compound=C/C(=N\O)NC(c1ccccc1)c1ccccc1 value_reported=3.24

Asked: Input Br.CC(=N)NC(c1ccccc1)c1ccccc1 [Compound 1, 1‐(benzhydrylamino)ethaniminium bromide] , output reported logP.
Given back: 2.54

Asked: Input CC(=N)NCc1cccc(CN)c1 [1400 W, reference compound] , output reported logP.
Given back: -1.66

====

Assay: PAMPA-GI assay
Set-up: dose or concentration left out as unconfirmed
Settings: PAMPA, pH 1.4
Method: The relative passive transcellular diffusion of compounds, expressed as permeability coefficient (Pe), was determined with a permeability equation. ^[45] The permeabilities of 1, 2, and 1400 W were determined at pH 5.0, 6.5, and 7.4 to mimic the physiological conditions of the GI tract (Table 1). […] As the new prodrug was designed for the potential treatment of neurodegenerative diseases, an important parameter is its capability to cross the BBB. […]
Here, each record is paired with measured Papp at 2 h data.
A number alone suffices; assume ×10⁻⁶ cm/s.

Below are worked cases with known answers.
compound=C/C(=N\O)NC(c1ccccc1)c1ccccc1 parameter="Papp at 2 h" value_reported=0.66
compound="Br.CC(=N)NC(c1ccccc1)c1ccccc1 [Compound 1, 1‐(benzhydrylamino)ethaniminium bromide]" parameter="Papp at 2 h" value_reported=0.57

// next entry
Asked: Input CC(=N)NCc1cccc(CN)c1 [1400 W, reference compound] , output reported Papp at 2 h.
Given back: 0.98

====

Experiment: Log D and log P by shake-flask method
Assay type: physicochemical
Settings: n-octanol/aqueous buffer pH 9.4, mean ± SD of three; read-out: log D 9.4
Parameter: logD

Asked: Input CC(=N)NCc1cccc(CN)c1 [1400 W, reference compound] , output reported logD.
Given back: -1.66

====

Test: Log D and log P by shake-flask method
Assay type: physicochemical
Conditions: n-octanol/aqueous buffer, pH 1.4, pH 1.4 to 9.4, range stated in text; read-out: log D values over the pH values tested
Parameter: logD

Asked: Input `C/C(=N\O)NC(c1ccccc1)c1ccccc1` , output reported logD.
Given back: -0.16 to 0.39

====

Assay: PAMPA-BBB assay
Parameters: dose or concentration left out as unconfirmed
Conditions: pig, PAMPA
Parameter: Papp at 18 h (×10⁻⁶ cm/s)
A number alone suffices; assume ×10⁻⁶ cm/s.

Asked: Input CC(=N)NCc1cccc(CN)c1 [1400 W, reference compound] , output reported Papp at 18 h.
Given back: 1.49

FYI, the data here is from paper PMC7756445.
